Target: T1, human CD20 (human, UniProt P11836 1-297)
T1 sequence (looked up): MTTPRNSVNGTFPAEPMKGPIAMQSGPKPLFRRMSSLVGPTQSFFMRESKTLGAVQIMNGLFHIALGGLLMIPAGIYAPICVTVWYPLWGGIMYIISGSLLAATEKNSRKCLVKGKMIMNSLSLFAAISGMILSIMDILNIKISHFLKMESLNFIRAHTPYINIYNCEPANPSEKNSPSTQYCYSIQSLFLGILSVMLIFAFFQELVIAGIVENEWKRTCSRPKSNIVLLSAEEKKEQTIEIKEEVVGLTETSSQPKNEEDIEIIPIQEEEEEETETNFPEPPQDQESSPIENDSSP
Assay: cell-based or functional assay
Measured % Lysis Raji 1 µg/ml ADCC values are reported for all entries that follow.
Unit % implied. Number only.

What value of % Lysis Raji 1 µg/ml ADCC has been reported for the following binder? mAb 1.2.1 (antibody, human IgG1, V domains shown, Human IgG1 kappa; also called 1.2.1.1; 50-001H1_2_1_1) VH: EVQLVQSGAEVKKPGESLKISCKGSGYSFTSYWIGWVRQMPGKGLEWMGIIYPGDSDTRYSPSFQGQVTISADKSISTAYLQWSSLKASDTAMYYCARLGDYYNYYGMDVWGQGTTVTVSS VL: DIVMTQTPLSSPVTLGQPASISCRSSQSLVHSDGKTYLSWLQQRPGQPPRLLIYKSSNRFSGVPDRFSGSGAGTDFTLKISRVEAEDVGVYYCVQATQFPITFGQGTRLEIK
45

What value of % Lysis Raji 1 µg/ml ADCC has been reported for the following binder? mAb 2.2.2 (antibody, human IgG1, V domains shown) VH: EVQLVQSGAEVKKPGESLKISCKGSGYSFTSYWIGWVRQMPGKGLEWMGIIYPGDSDTKYSPSFQGQVTISADKSISTAYLQWSSLKASDTAMYYCARQGDFWSGNGGMDVWGQGTTVTVSS VL: DIVMTQTPLSSPVTLGQPASISCRSSQSLVSRDGNTYLSWLQQRPGQPPRLLIYKISNRFSGVPDRFSGSGAGTDFTLKISRVEVEDVGVYYCMQATQFPITFGQGTRLEIK
44

What value of % Lysis Raji 1 µg/ml ADCC has been reported for the following binder? mAb 1.12.3 (antibody, human IgG1, V domains shown) VH: EVQLVQSGAEVKKPGESLKISCKGSGYSFTSYWIGWVRQMSGKGLEWMGIIYPGDSDTRYSPSFQGQVTISADKSISTAYLQWSSLKASDTAIYYCARHPSYGSGSPNFDYWGQGTLVTVSS VL: DIVMTQTPLSSPVTLGQPASISCRSSQSLVYSDGNTYLSWLQQRPGQPPRLLFYKISNRFSGVPDRFSGSGAGTDFTLKISRVEAEDVGVYYCVQATQFPLTFGGGTKVEIK
10

What value of % Lysis Raji 1 µg/ml ADCC has been reported for the following binder? mAb 1.13.2 (antibody, human IgG1, V domains shown, Human IgG1 kappa; also called 1.13.1; 50-001H1_13_1) VH: EVQLVQSGAEVKKPGESLKISCKGSGYSFTNYWIGWVRQMPGKGLEWMGIIYPGDSDTRYSPSFQGQVTISADKSISTAYLQWSSLKASDTAMYYCARQGDYYHYSGMDVWGQGTTVTVSS VL: DVVMTQSPLSLSVTLGQPASISCRSSQSLVYNDGDTYLNWFQQRPGQSPRLLIYKVSNWDSGVPDRFSGSGSGTDFTLKVSRVEAEDVGVYYCMQGTHWPLTFGGGTKVEIK
21

What value of % Lysis Raji 1 µg/ml ADCC has been reported for the following binder? mAb 2.1.2 (ATCC Accession Number PTA-7328) (antibody, human IgG1, V domains shown, Human IgG1 kappa; also called 2.1.1; 50-001H2_1_1) VH: EVQLVQSGAEVKKPGESLKISCKGSGYSFTSYWIGWVRQMPGKGLEWMGIIYPGDSDTRYSPSFQGQVTISADKSISTAYLQWSSLKASDTAMYYCARQGDFWSGYGGMDVWGQGTTVTVSS VL: DIVMTQTPHSSPVTLGQPASISCRSSQSLVSRDGNTYLSWLQQRPGQPPRLLIYKISNRFSGVPNRFSGSGAGTDFTLKISRVKAEDVGVYYCMQATQFPLTFGQGTRLEIK
17

What value of % Lysis Raji 1 µg/ml ADCC has been reported for the following binder? mAb 1.6.2 (antibody, human IgG1, V domains shown) VH: EVQLVQSGAEVKKPGESLKISCKGSGYSFTSYWIGWVRQMPGKGLEWMGIIYPGDSDTRYSPSFQGQVTISADKSISTAYLQWSSLKASDTAMYYCARHGDYSNIDAFDIWGQGTMVTVSS VL: DVVMTQSPLSLPVTLGQPASISCRSSQSLVYSDGNAYLNWFQQRPGQSPRRLIYKVSNWDSGVPDRFSGSGSGTDFTLKIRRVEAEDVGAYYCMQGIHCTFGPGTKVHIK
36
